molecular target: T1, secreted, soluble furin (human, UniProt P09958 108-715, limits assumed); assay: equilibrium enzyme inhibition, fluorogenic substrate
T1 construct: Secreted, soluble construct; also called human furin
T1 sequence (P09958 108-715 limits assumed): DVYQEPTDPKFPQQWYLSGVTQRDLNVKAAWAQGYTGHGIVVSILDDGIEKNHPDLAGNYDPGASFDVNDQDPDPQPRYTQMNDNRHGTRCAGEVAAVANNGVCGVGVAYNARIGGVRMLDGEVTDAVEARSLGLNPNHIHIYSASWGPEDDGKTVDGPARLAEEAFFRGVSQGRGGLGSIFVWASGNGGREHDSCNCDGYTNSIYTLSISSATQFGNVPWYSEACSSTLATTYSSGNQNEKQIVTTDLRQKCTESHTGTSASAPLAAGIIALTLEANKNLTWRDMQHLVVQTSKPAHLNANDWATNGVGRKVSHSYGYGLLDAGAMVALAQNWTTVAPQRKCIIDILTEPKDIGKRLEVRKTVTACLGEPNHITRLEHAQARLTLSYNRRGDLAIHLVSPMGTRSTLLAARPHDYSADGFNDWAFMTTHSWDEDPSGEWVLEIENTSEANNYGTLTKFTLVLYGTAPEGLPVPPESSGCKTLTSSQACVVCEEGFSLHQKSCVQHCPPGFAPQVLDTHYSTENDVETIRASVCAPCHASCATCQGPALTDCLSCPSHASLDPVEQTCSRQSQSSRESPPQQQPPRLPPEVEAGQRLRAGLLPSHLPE
// Ki lookup, one value per entry
Report as a plain number; the unit µM is understood.

Exercise: Identify the reported Ki for the following entry. M4K1-eglin (designed binder, N-terminal Met removed) SMGSELKSFPEVVGKTVDQAREYFTLHYPQYDVYFLPEGSMVTKDLRYNRVRVFYNPGTNVVNHVPHVG
Key: 17

More entries:
Exercise: Identify the reported Ki for the following entry. R4R1-eglin (designed binder, N-terminal Met removed; also called Tyr49-R4R1-; D33Y49) SMGSELKSFPEVVGKTVDQAREYFTLHYPQYDVYFLPEGSRVTRDLRYNRVRVFYNPGTNVVNHVPHVG
Key: 0.0025

Exercise: Identify the reported Ki for the following entry. R4K1-eglin (designed binder, N-terminal Met removed; also called R4K1-template) SMGSELKSFPEVVGKTVDQAREYFTLHYPQYDVYFLPEGSRVTKDLRYNRVRVFYNPGTNVVNHVPHVG
Key: 0.038

Exercise: Identify the reported Ki for the following entry. R1-eglin (designed binder, also called Arg45-eglin c) SMGSELKSFPEVVGKTVDQAREYFTLHYPQYDVYFLPEGSPVTRDLRYNRVRVFYNPGTNVVNHVPHVG
Key: 53
